Where do these numbers come from? They come from PubChem BioAssay.

# METHOD_SUMMARY: small-molecule binders of probe aLefty1, primary screen, biochemical, small-molecule microarray, 635/667 nm fluorescence (AID 1153);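 also: score merges spot fluorescence with signal-to-noise ratio from the scanned slide images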
# CONDITION_DETAILS: higher = more signal
Heads up, the class ranges for composite z-score are class 1 (below -0.1), class 2 (-0.1 to below 0.1), class 3 (0.1 or more)

- COMPOUND: "C=CC[C@]1(C(=O)OC)N=C(c2ccc(OCCCO)cc2)O[C@H]1c1ccccc1CN=[N+]=[N-]"
  CLASS_LABEL: "class 3"
- COMPOUND: "O=C1C[C@@](C(=O)NC2CC2)(c2ccc([N+](=O)[O-])cc2)[C@@H](c2ccc(CO)cc2I)N1CC12CC3CC(CC(C3)C1)C2"
  CLASS_LABEL: "class 2"
- COMPOUND: "CC(C)N1CC=CC23O[C@@H]4/C=C\\CCCOC(=O)C4[C@H]2C(=O)N(CCCCCO)[C@@H]3C1=O (stereo not given in full)"
  CLASS_LABEL: "class 1"

Task: Textbook exercise: identify the category of the compound given here, C[C@H]1NC(=O)[C@@H](C)NC(=O)[C@@]23C(=O)N[C@@H](Cc4ccccc4)C2[C@H](C)[C@@]2(C)O[C@H]2C3/C=C/C/C=C\CNC1=O (stereo not given in full) , according to its measured value.
Output: class 1

Task: Into which bin does this compound go? `Cc1ccc(N2C(=O)c3ccccc3[C@](C)(C(=O)NCC(C)C)[C@@H]2c2ccc(CO)cc2)nc1`
Output: class 1

Task: State the band of `C#CCCCON=C1C[C@@H](O)[C@@H](O)[C@@H]2[C@@H]3C(=O)N(Cc4ccc5c(c4)OCO5)C(=O)[C@@H]3CC[C@@H]12`
Output: class 3
